The origin of these recorded values is the supplement of paper PMC10567573.

B1: STK38L (parent)
chain: RQLAYSTVGTPDYIAPEVFMQTGY

Variants of: B1
Assay: protein stability index of a GFP-peptide fusion (GPS, HEK-293T) (PSI 1-6); higher = more stable;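 note: lentivirally expressed fusions sorted by FACS into six bins by GFP to DsRed ratio, PSI derived from sequencing read proportions per bin multiplied by bin number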
Details: c terminus: a fixed tail appended
Bucketed by reported protein stability index, buckets being category 1: < 2; category 2: ≥ 2 and < 3; category 3: ≥ 3

VARIANT_SPEC	CLASSIFICATION
M20R	category 2
P11S	category 2
T7L	category 2
D12Q	category 2
L3P	category 2
D12S	category 2
V18D	category 3
T10F	category 1
V8D	category 3
F19I	category 2
M20H	category 2
P16Y	category 1
